Origin of values: PubChem BioAssay AID1963978

Reported viability, T/C by item:
# Tested on: 616215-338-R-J1-PDC spheroids with HUVEC/MSC, viability
# assay-method-text: Anticancer human tumor 616215-338-R-J1-PDC patient-derived colon adenocarcinoma cell line growth inhibition [PI3K]
# condition-summary: second compound 0.0316 µM; first compound 0.0949 µM; active compounds read low
# output: bare number, implied unit %

Please report the recorded viability, T/C for Cn1cnc2c(F)c(Nc3ccc(Br)cc3Cl)c(C(=O)NOCCO)cc21 + COc1c(OCCCN2CCOCC2)ccc2c3n(c(=NC(=O)c4cnc(N)nc4)nc12)CCN3 .
73.7

Entry Cn1cnc2c(F)c(Nc3ccc(Br)cc3Cl)c(C(=O)NOCCO)cc21 + CC(Nc1ccc2c(c1)OCCn1cc(N3C(=O)OCC3C(F)F)nc1-2)C(N)=O has what viability, T/C?
77.2

# lookup: viability, T/C of Cn1cnc2c(F)c(Nc3ccc(Br)cc3Cl)c(C(=O)NOCCO)cc21 + CC(Nc1ncnc2nc[nH]c12)c1cc2cccc(Cl)c2c(=O)n1-c1ccccc1
89.7

What does the record list as viability, T/C for Cn1cnc2c(F)c(Nc3ccc(Br)cc3Cl)c(C(=O)NOCCO)cc21 + Cc1nc(NC(=O)N2CCCC2C(N)=O)sc1-c1ccnc(C(C)(C)C(F)(F)F)c1 ?
99.2

* * *

# Tested on: 616215-338-R-J1-PDC spheroids with HUVEC/MSC, viability
# assay-method-text: Anticancer human tumor 616215-338-R-J1-PDC cell line growth inhibition [PI3K];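 note: spheroids exposed to agents for seven days before the viability read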
# condition-summary: second compound 0.316 µM; first compound 0.1 µM; active compounds read low
viability, T/C: recorded values

CC1(C)CCC(Nc2ncc(C(F)(F)F)c(-c3c[nH]c4c(P(C)(C)=O)c(C#N)ccc34)n2)CN1 (stereo not drawn) + CC(Nc1ccc2c(c1)OCCn1cc(N3C(=O)OCC3C(F)F)nc1-2)C(N)=O ... 45.8%

For the compound CC(Cn1ccc(-c2ccc(C#N)c(Cl)c2)n1)NC(=O)c1cc(C(C)O)[nH]n1 (stereo not drawn) + Cc1nc(NC(=O)N2CCCC2C(N)=O)sc1-c1ccnc(C(C)(C)C(F)(F)F)c1 , what viability, T/C is on record?
104%

Report viability, T/C for Cn1nccc1Nc1nccc(-c2ccn(C(CO)c3ccc(Cl)c(F)c3)c(=O)c2)n1 (stereo not drawn) + CC(Nc1ccc2c(c1)OCCn1cc(N3C(=O)OCC3C(F)F)nc1-2)C(N)=O please.
100%

* * *

# Test system: 616215-338-R-J1-PDC spheroids with HUVEC/MSC, viability
# assay-method-text: Anticancer human tumor 616215-338-R-J1-PDC cell line growth inhibition [PI3K];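 note: spheroids exposed to agents for seven days before the viability read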
# condition-summary: second compound 0.316 µM; first compound 0.03 µM; active compounds read low
Attribute: viability, T/C
Entry rule: numbers only, all in %.

Example cases with answers are listed next.
Cn1cnc2c(F)c(Nc3ccc(Br)cc3Cl)c(C(=O)NOCCO)cc21 + CC(Nc1ccc2c(c1)OCCn1cc(N3C(=O)OCC3C(F)F)nc1-2)C(N)=O ... 94.8
Cn1cnc2c(F)c(Nc3ccc(Br)cc3Cl)c(C(=O)NOCCO)cc21 + COc1c(OCCCN2CCOCC2)ccc2c3n(c(=NC(=O)c4cnc(N)nc4)nc12)CCN3 ... 47.4
Cn1cnc2c(F)c(Nc3ccc(Br)cc3Cl)c(C(=O)NOCCO)cc21 + CC(Nc1ncnc2nc[nH]c12)c1cc2cccc(Cl)c2c(=O)n1-c1ccccc1 ... 90.5

Query (molecule): Cn1cnc2c(F)c(Nc3ccc(Br)cc3Cl)c(C(=O)NOCCO)cc21 + Cc1nc(NC(=O)N2CCCC2C(N)=O)sc1-c1ccnc(C(C)(C)C(F)(F)F)c1 ; field requested: viability, T/C
101

* * *

# System: 616215-338-R-J1-PDC spheroids with HUVEC/MSC, viability
# assay-method-text: Anticancer human tumor 616215-338-R-J1-PDC cell line growth inhibition [PI3K];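 note: spheroids exposed to agents for seven days before the viability read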
# condition-summary: second compound 0.316 µM; first compound 0.0316 µM; active compounds read low
Listed next: entries and their corresponding viability, T/C.
Lab book: enter the figure in %, no units written.

Below, each entry is followed by its recorded viability, T/C result.
CCCS(=O)(=O)Nc1ccc(F)c(C(=O)c2c[nH]c3ncc(-c4ccc(Cl)cc4)cc23)c1F + CC(Nc1ncnc2nc[nH]c12)c1cc2cccc(Cl)c2c(=O)n1-c1ccccc1 ... 105
CCCS(=O)(=O)Nc1ccc(F)c(C(=O)c2c[nH]c3ncc(-c4ccc(Cl)cc4)cc23)c1F + COc1c(OCCCN2CCOCC2)ccc2c3n(c(=NC(=O)c4cnc(N)nc4)nc12)CCN3 ... 53.8

Turning to the following compound.
Returns the measured viability, T/C for the input compound. Input: CC(Cn1ccc(-c2ccc(C#N)c(Cl)c2)n1)NC(=O)c1cc(C(C)O)[nH]n1 (stereo not drawn) + Cc1nc(NC(=O)N2CCCC2C(N)=O)sc1-c1ccnc(C(C)(C)C(F)(F)F)c1
98.6

* * *

# System: 616215-338-R-J1-PDC spheroids with HUVEC/MSC, viability
# assay-method-text: Anticancer human tumor 616215-338-R-J1-PDC cell line growth inhibition [PI3K];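 note: spheroids exposed to agents for seven days before the viability read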
# condition-summary: second compound 10 µM; first compound 0.0316 µM; active compounds read low
property-measured: viability, T/C (%)
Lab book: enter the figure in %, no units written.

CC1(C)CCC(CN2CCN(c3ccc(C(=O)NS(=O)(=O)c4ccc(NCC5CCOCC5)c([N+](=O)[O-])c4)c(Oc4cnc5[nH]ccc5c4)c3)CC2)=C(c2ccc(Cl)cc2)C1 + CC(Nc1ncnc2nc[nH]c12)c1cc2cccc(Cl)c2c(=O)n1-c1ccccc1 ... 118
C#Cc1c(F)ccc2cc(O)cc(-c3ncc4c(N5CC6CCC(C5)N6)nc(OCC56CCCN5CC(F)C6)nc4c3F)c12 (stereo not given) + CC(Nc1ncnc2nc[nH]c12)c1cc2cccc(Cl)c2c(=O)n1-c1ccccc1 ... 104

Query: viability, T/C; subject: C[C@@H](NC(=O)c1ncnc(N)c1Cl)c1ncc(C(=O)Nc2cc(C(F)(F)F)c(Cl)cn2)s1 + CC(Nc1ncnc2nc[nH]c12)c1cc2cccc(Cl)c2c(=O)n1-c1ccccc1
95.4

Requested field: viability, T/C. Item: CC(=O)c1c(C)c2cnc(Nc3ccc(N4CCNCC4)cn3)nc2n(C2CCCC2)c1=O + Cc1nc(NC(=O)N2CCCC2C(N)=O)sc1-c1ccnc(C(C)(C)C(F)(F)F)c1
91

Dear colleague, I am looking for the recorded viability, T/C of the following molecule: Cn1nccc1Nc1nccc(-c2ccn(C(CO)c3ccc(Cl)c(F)c3)c(=O)c2)n1 (stereo not given) + CC(Nc1ncnc2nc[nH]c12)c1cc2cccc(Cl)c2c(=O)n1-c1ccccc1
111

* * *

# Tested on: 616215-338-R-J1-PDC spheroids with HUVEC/MSC, viability
# assay-method-text: Anticancer human tumor 616215-338-R-J1-PDC cell line growth inhibition [PI3K];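 note: spheroids exposed to agents for seven days before the viability read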
# condition-summary: second compound 0.00316 µM; first compound 0.000316 µM; active compounds read low
The entries below come with measured viability, T/C values attached.
Numbers only; they are read as %.

Reference set, count: 2
CC(C)n1nc(-c2ccc3oc(N)nc3c2)c2c(N)ncnc21 + COc1c(OCCCN2CCOCC2)ccc2c3n(c(=NC(=O)c4cnc(N)nc4)nc12)CCN3 ... 104
Cn1ncnc1[C@H]1c2n[nH]c(=O)c3cc(F)cc(c23)N[C@@H]1c1ccc(F)cc1 + COc1c(OCCCN2CCOCC2)ccc2c3n(c(=NC(=O)c4cnc(N)nc4)nc12)CCN3 ... 99.2

Looking for the measured viability, T/C of CC(C)n1nc(-c2ccc3oc(N)nc3c2)c2c(N)ncnc21 + CC(Nc1ccc2c(c1)OCCn1cc(N3C(=O)OCC3C(F)F)nc1-2)C(N)=O , can you help?
92.2

* * *

// reported viability, T/C for each item listed
# Test system: 616215-338-R-J1-PDC spheroids with HUVEC/MSC, viability
# assay-method-text: Anticancer human tumor 616215-338-R-J1-PDC cell line growth inhibition [PI3K];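 note: spheroids exposed to agents for seven days before the viability read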
# condition-summary: second compound 10 µM; first compound 0.0316 µM; active compounds read low
Give the quantity in %, number only.

CNC(=O)c1ccc(N2C(=S)N(c3ccc(C#N)c(C(F)(F)F)c3)C(=O)C2(C)C)cc1F + CC(Nc1ncnc2nc[nH]c12)c1cc2cccc(Cl)c2c(=O)n1-c1ccccc1 ... 104
CC(Cn1ccc(-c2ccc(C#N)c(Cl)c2)n1)NC(=O)c1cc(C(C)O)[nH]n1 (stereo not given) + Cc1nc(NC(=O)N2CCCC2C(N)=O)sc1-c1ccnc(C(C)(C)C(F)(F)F)c1 ... 105

Endpoint output: viability, T/C of Cn1ncc(Cl)c1-c1cc(C(=O)NC(CN)Cc2cccc(F)c2)sc1Cl (stereo not given) + Cc1nc(NC(=O)N2CCCC2C(N)=O)sc1-c1ccnc(C(C)(C)C(F)(F)F)c1 . Value?
89.9

Which viability, T/C is listed for CCCS(=O)(=O)Nc1ccc(F)c(C(=O)c2c[nH]c3ncc(-c4ccc(Cl)cc4)cc23)c1F + Cc1nc(NC(=O)N2CCCC2C(N)=O)sc1-c1ccnc(C(C)(C)C(F)(F)F)c1 ?
91.7

Look up viability, T/C for this compound: C=CC(=O)N1CCN(c2nc(=O)n(-c3c(C)ccnc3C(C)C)c3nc(-c4c(O)cccc4F)c(F)cc23)C(C)C1 (stereo not given) + CC(Nc1ncnc2nc[nH]c12)c1cc2cccc(Cl)c2c(=O)n1-c1ccccc1
106
